method: Tmax in Swiss Albino mouse at 10 mg/kg, iv by LC-MS/MS analysis
Format: ADME, organism-based
Parameters: dose 10 mg/kg, route intravenous
conditions: in vivo
metricName: Tmax (min)
Give a bare numeral; the unit min is implied.

Need Tmax of OC/C=C/c1cc(N2CCOCC2)c2cc(Cl)c(F)cc2n1 , thanks.
4.8

====

method: Cmax in Swiss Albino mouse at 10 mg/kg, iv by LC-MS/MS analysis
Assay type: ADME, organism-based
Set-up: dose 10 mg/kg, route intravenous
conditions: in vivo
metricName: Cmax
# output: numeric value plus its unit

Need Cmax of OC/C=C/c1cc(N2CCOCC2)c2cc(Cl)c(F)cc2n1 , thanks.
2230 ng/mL
